Target entity: α-glucosidase (Saccharomyces cerevisiae, UniProt P53341)
Construct: purchased Sigma Corporation G5003
Sequence (P53341 whole entry): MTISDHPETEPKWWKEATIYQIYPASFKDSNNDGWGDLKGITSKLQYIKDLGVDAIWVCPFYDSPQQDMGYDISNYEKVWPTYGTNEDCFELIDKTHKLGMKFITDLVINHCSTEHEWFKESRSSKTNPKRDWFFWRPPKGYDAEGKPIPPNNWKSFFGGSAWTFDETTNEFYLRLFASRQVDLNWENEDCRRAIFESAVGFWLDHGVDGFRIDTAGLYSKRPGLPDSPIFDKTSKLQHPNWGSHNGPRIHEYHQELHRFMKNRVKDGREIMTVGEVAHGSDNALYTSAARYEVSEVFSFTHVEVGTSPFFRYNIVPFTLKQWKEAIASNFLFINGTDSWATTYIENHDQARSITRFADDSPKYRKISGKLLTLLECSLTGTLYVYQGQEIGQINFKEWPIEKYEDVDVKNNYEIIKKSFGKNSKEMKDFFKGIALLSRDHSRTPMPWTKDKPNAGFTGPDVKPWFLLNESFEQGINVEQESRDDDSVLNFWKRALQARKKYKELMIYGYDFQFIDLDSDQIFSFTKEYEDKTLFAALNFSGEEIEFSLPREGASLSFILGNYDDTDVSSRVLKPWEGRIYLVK
Assay text: α-glucosidase inhibitory activity test in vitro
Format: biochemical
Measurement parameters: read-out: α-glucosidase inhibitory activity (IC50)
Criterion: IC50 strictly under 1 µM. Met: YES. Not met: NO.

Please review the following examples before continuing.
{"Molecule": "CC(C)=CCC/C(C)=C/CC/C(=C/C(=O)c1cc(O)ccc1O)C(=O)O [S32]", "Group": "NO"}
{"Molecule": "CC(C)=CCC/C(C)=C/CCC1=C[C@@H](c2ccccc2O)OC1=O [S19]", "Group": "YES"}
{"Molecule": "COCOc1ccccc1[C@@H]1C=C(CC/C=C(\\C)CCC=C(C)C)C(=O)O1 [S18]", "Group": "NO"}
{"Molecule": "CC(C)=CCCC1=C[C@@H](c2cc(O)ccc2O)OC1=O [S38]", "Group": "NO"}

Bench note: check whether COc1ccc([C@@H]2C=C(CC/C=C(\C)CCC=C(C)C)C(=O)O2)cc1 [S25] shows IC50 below 1 µM NO

Cited source: patent US10441562B2
